Hello, the source for this data is patent US11254668B2, in case you need it.

Molecular target: JAK1 (Homo sapiens (Human), UniProt P23458)
Sequence (P23458 875-1153): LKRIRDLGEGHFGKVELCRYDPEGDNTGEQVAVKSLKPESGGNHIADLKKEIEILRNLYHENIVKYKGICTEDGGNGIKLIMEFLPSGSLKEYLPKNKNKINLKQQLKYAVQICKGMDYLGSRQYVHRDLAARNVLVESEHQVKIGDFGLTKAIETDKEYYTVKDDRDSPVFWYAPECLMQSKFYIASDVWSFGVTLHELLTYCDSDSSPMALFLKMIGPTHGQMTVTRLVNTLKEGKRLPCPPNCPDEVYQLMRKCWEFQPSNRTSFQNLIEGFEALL
Experiment: JAK Caliper Enzyme Assay at 1 mM ATP, JAK1
Assay type: biochemical
pIC50: −log10 of the molar value.
ASSAY ENDPOINT: pIC50

>>> endpoint_value("CO[C@H]1C[C@@](CC#N)(n2ccc(-c3nc(-c4cnn(C5COC5)c4)cc4ncccc34)n2)C1")
5.18
>>> endpoint_value("N#CC[C@]1(n2ccc(-c3nc(-c4cccc(C(N)=O)n4)cc4ncccc34)n2)C[C@H](C#N)C1")
5.70
>>> endpoint_value("N#CC[C@]1(n2ccc(-c3nc(-c4cccc(O)n4)cc4ncccc34)n2)C[C@H](C#N)C1")
5.69
>>> endpoint_value("N#CCC1(n2ccc(-c3nc(-c4cn[nH]n4)cc4ncccc34)n2)CN(CC(F)(F)F)C1")
5.23
>>> endpoint_value("Cc1cc(-c2cc3ncccc3c(-c3ccn(C4(CC#N)CN(CC(F)(F)F)C4)n3)n2)n[nH]1")
5.79

A: CS(=O)(=O)N1CC(CC#N)(n2ccc(-c3nc(-c4cnn(CCO)c4)cc4ncccc34)n2)C1
B: N#CC[C@]1(n2ccc(-c3nc(-c4cc5n(n4)CCNC5)cc4ncccc34)n2)C[C@H](C#N)C1
Q: Which record would sort first by descending pIC50, A or B ? Give the label under which the chosen entry appears.
Result: A
(A: 6.02, B: 5.33)

A: N#CCC1(n2ccc(-c3nc(-c4ccnnc4)cc4ncccc34)n2)CN(CC(F)(F)F)C1
B: N#CCC1(n2ccc(-c3nc(-c4ccnc(N)c4)cc4ncccc34)n2)CC(C#N)C1 (stereo not drawn)
Q: Which record would sort first by descending pIC50, A or B ? Give the label under which the chosen entry appears.
Result: B
(B: 6.47, A: 5.02)

====

Target: JAK3 (Homo sapiens (Human))
Sequence (P52333 822-1111): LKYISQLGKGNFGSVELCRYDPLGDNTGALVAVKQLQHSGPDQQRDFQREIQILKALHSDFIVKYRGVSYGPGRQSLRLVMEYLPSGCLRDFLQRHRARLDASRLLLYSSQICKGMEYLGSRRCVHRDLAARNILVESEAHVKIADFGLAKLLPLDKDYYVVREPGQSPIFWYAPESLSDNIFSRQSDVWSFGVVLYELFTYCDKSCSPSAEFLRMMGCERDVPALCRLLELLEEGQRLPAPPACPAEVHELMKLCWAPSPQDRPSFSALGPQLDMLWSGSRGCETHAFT
Experiment: JAK Caliper Enzyme Assay at 1 mM ATP, JAK3
Type: biochemical
ASSAY ENDPOINT: IC50 (µM)

Examples from the recorded data:
>>> endpoint_value("N#CC[C@H]1C[C@@](CC#N)(n2ccc(-c3nc(-c4cn[nH]c4)cc4ncccc34)n2)C1")
8.61
>>> endpoint_value("CS(=O)(=O)N1CC(CC#N)(n2ccc(-c3nc(-c4c[nH]nc4N)cc4ncccc34)n2)C1")
5.06

P: Cc1nc(-c2cc(-c3cnn([C@]4(CC#N)C[C@H](C#N)C4)n3)c3cccnc3c2)c[nH]1
Q: CCS(=O)(=O)N1CC(CC#N)(n2ccc(-c3nc(-c4cnn(C)c4)cc4ncccc34)n2)C1
Q: Of P and Q , whose reported IC50 is numerically smaller? Give the label under which the chosen entry appears.
Result: P

====

Target: JAK1 (Homo sapiens (Human), UniProt P23458)
Experiment: JAK Caliper Enzyme Assay at 1 mM ATP, JAK1
Format: biochemical
Settings: JAK Caliper enzyme assay
Method: Compounds of the invention were evaluated by in vitro methods to determine their respective ability to inhibit the JAK kinases (TYK2, JAK1, JAK2, JAK3). The human JAK inhibitory activity was determined by using a microfluidic assay to monitor phosphorylation of a synthetic peptide by the recombinant human kinase domain of each of the four members of the JAK family, JAK1, JAK2, JAK3 and TYK2. […]
ASSAY ENDPOINT: IC50 (nM)

>>> endpoint_value("CN1C(=O)COc2ccc(-c3cc(-c4cnn([C@]5(CC#N)C[C@@H](C#N)C5)n4)c4cccnc4c3)nc21")
1000
>>> endpoint_value("CS(=O)(=O)N1CC(CC#N)(n2ncc(-c3cc(-c4cccc(C(N)=O)c4)cc4ncccc34)n2)C1")
3140
>>> endpoint_value("N#CC[C@]1(n2ncc(-c3cc(-c4ccc(C(N)=O)cc4)cc4ncccc34)n2)C[C@H](C#N)C1")
352

a: COc1nc(-c2cc(-c3cnn([C@]4(CC#N)C[C@@H](C#N)C4)n3)c3cccnc3c2)ccc1N
b: N#CC[C@]1(n2ncc(-c3cc(-c4cncc(N)n4)cc4ncccc34)n2)C[C@@H](C#N)C1
Q: Which record would sort first by descending IC50, a or b ? Give the label under which the chosen entry appears.
Result: b
